Values from patent US20260109763A1

biological target: human PILRA G78 on cells (human, UniProt Q9UKJ1 20-303); experiment: cell-based or functional assay
Sequence (Q9UKJ1 20-303 R78G limits assumed): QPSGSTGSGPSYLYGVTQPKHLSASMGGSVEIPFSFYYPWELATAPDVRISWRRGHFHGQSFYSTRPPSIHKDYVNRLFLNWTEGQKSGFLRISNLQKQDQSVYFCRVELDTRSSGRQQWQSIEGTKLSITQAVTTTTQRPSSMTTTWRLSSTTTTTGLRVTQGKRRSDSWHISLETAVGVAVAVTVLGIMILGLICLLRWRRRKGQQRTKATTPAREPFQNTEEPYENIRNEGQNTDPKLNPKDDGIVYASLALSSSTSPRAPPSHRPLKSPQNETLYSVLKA
Each record here notes measured pSTAT3 Y705 induction, EC50 (nM).
recorded_endpoint: pSTAT3 Y705 induction, EC50 (nM)

{"binder": "Anti-PILRA antibody clone 6 (antibody, V domains shown, the printed lines of the VL are out of order there) VH: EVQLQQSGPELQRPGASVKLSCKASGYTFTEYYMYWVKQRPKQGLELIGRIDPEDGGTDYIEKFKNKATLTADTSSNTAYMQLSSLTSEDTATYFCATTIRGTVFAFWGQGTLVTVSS VL: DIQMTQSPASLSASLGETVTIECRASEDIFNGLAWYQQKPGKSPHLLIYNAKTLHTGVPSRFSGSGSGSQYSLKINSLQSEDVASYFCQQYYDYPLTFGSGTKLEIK", "recorded_endpoint": "pSTAT3 Y705 induction, EC50 (nM)", "recorded_result": "12.1 nM"}
{"binder": "Anti-PILRA antibody clone 23 (antibody, V domains shown, Humanized; also called Ab.23) VH: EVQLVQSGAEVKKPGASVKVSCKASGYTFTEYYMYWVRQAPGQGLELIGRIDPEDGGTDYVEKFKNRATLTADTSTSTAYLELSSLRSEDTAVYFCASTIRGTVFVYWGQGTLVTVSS VL: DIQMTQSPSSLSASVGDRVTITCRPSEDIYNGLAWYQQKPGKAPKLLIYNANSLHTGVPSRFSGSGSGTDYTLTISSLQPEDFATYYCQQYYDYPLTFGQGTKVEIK", "recorded_endpoint": "pSTAT3 Y705 induction, EC50 (nM)", "recorded_result": "12.2 nM"}
{"binder": "Anti-PILRA antibody clone 15 (antibody, V domains shown, Humanized; also called Ab.15) VH: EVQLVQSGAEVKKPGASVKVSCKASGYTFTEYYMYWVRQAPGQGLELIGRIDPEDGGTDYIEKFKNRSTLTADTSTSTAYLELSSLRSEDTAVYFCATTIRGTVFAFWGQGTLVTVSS VL: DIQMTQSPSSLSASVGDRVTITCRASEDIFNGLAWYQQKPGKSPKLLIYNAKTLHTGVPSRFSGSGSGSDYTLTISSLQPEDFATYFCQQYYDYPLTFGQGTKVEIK", "recorded_endpoint": "pSTAT3 Y705 induction, EC50 (nM)", "recorded_result": "16.9 nM"}
{"binder": "Anti-PILRA antibody clone 7 (antibody, V domains shown) VH: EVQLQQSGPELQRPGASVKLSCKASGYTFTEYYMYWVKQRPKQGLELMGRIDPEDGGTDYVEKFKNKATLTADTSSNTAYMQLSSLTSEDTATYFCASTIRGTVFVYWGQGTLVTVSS VL: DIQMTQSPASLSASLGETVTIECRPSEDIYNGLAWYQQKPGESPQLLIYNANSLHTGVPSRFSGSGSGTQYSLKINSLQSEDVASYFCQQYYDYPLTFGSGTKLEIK", "recorded_endpoint": "pSTAT3 Y705 induction, EC50 (nM)", "recorded_result": "13 nM"}
{"binder": "Anti-PILRA antibody clone 35 (antibody, V domains shown, Humanized; also called Ab.35) VH: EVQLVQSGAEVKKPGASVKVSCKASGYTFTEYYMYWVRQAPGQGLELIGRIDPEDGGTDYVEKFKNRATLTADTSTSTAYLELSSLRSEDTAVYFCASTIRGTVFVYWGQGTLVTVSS VL: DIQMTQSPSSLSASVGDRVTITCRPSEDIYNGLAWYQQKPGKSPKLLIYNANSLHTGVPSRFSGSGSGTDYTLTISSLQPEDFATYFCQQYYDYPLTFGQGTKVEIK", "recorded_endpoint": "pSTAT3 Y705 induction, EC50 (nM)", "recorded_result": "11.4 nM"}
{"binder": "Anti-PILRA antibody clone 12 (antibody, V domains shown, Humanized; also called Ab.12) VH: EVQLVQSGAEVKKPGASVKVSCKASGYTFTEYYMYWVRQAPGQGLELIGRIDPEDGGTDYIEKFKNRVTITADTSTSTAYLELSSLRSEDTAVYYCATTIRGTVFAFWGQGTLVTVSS VL: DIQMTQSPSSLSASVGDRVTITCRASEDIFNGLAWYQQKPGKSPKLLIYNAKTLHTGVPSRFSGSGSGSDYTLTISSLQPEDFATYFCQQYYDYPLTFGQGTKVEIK", "recorded_endpoint": "pSTAT3 Y705 induction, EC50 (nM)", "recorded_result": "11.7 nM"}
